- Assay Target: FapR-fapO complex (Bacillus subtilis)
- Sequence (O34835 other isoform, or with tags, fused parts or gaps): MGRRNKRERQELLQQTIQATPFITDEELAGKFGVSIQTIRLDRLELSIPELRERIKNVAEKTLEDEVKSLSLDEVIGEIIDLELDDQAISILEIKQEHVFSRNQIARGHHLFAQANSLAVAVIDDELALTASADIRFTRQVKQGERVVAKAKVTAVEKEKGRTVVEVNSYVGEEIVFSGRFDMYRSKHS
- Experiment Notes: Electrophoretic mobility shift assay of FapR and fapO
- Measurement Conditions: titrated against FapR, 40 bp fapO fragment; read-out: concentration at which half of the DNA would be bound
Property Name: pEC50
Numbers only, as −log10 of the molar value.

Asked: Form field: reported pEC50 of `CC(C)(COP(=O)(O)OP(=O)(O)OC[C@H]1O[C@@H](n2cnc3c(N)ncnc32)[C@H](O)[C@@H]1OP(=O)(O)O)[C@@H](O)C(=O)NCCC(=O)NCCSC(=O)CC(=O)O`
Given back: 3.70

---

- Assay Target: FapR (Bacillus subtilis)
- Sequence (O34835 other isoform, or with tags, fused parts or gaps): as above
- Experiment Notes: Cell-free transcription-translation (TX-TL) FapR/T7-fapO-sfGFP assay
- Type: biochemical, B. subtilis
- Design: made in house; host or cells: E. coli BL21(DE3)
- Measurement Conditions: each thioester at fixed concentration (150 μM), FIG. 5D
Property Name: fluorescence response (de-repression of FapR/T7-fapO-sfGFP) compared among thioesters

CCC(C(=O)O)C(=O)SCCNC(=O)CCNC(=O)[C@H](O)C(C)(C)COP(=O)(O)OP(=O)(O)OC[C@H]1O[C@@H](n2cnc3c(N)ncnc32)[C@H](O)[C@@H]1OP(=O)(O)O (stereo partly shown) [emCoA, ethylmalonyl-CoA] :: poorest effectors
CCCCC(C(=O)O)C(=O)SCCNC(=O)CCNC(=O)[C@H](O)C(C)(C)COP(=O)(O)OP(=O)(O)OC[C@H]1O[C@@H](n2cnc3c(N)ncnc32)[C@H](O)[C@@H]1OP(=O)(O)O (stereo partly shown) [bmCoA, butylmalonyl-CoA] :: poorest effectors
